Target: T1, CD3 epsilon homodimer protein (UniProt P07766 23-126)
T1 construct: also called CD3 (CD3 epsilon)
T1 sequence (P07766 23-126): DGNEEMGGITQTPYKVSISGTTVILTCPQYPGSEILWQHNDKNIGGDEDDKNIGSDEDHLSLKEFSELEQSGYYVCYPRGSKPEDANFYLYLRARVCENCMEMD
Assay: SPR, antibody over immobilised CD3e homodimer;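 further: SPR at 25 °C with CD3 epsilon homodimer amine-coupled to a CM4 sensor chip and antibody flowed over as analyte in HBS-EP+ running buffer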
EXPERIMENTAL ENDPOINT: KD ratio to GLS3000

Field: example entries. Status: answers known.
CE115HA000/GLS3000 R54P (antibody, IgG1, name in Kabat numbering, V domains shown, one-arm IgG1) VH: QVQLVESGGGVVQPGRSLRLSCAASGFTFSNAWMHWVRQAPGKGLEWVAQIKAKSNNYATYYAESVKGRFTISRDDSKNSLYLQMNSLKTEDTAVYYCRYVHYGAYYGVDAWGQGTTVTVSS VL: DIVMTQSPLSLPVTPGEPASISCRSSQSLVHSNRNTYLHWYQQKPGQAPRLLIYKVSNPFSGVPDRFSGSGSGTDFTLKISRVEAEDVGVYYCGQGTQVPYTFGQGTKLEIK ... 1.05
CE115HA000/GLS3000 S56R (antibody, IgG1, name in Kabat numbering, V domains shown, one-arm IgG1) VH: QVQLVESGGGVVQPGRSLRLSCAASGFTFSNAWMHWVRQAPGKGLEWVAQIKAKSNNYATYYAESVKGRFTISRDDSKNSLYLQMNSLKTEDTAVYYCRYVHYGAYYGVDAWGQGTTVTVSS VL: DIVMTQSPLSLPVTPGEPASISCRSSQSLVHSNRNTYLHWYQQKPGQAPRLLIYKVSNRFRGVPDRFSGSGSGTDFTLKISRVEAEDVGVYYCGQGTQVPYTFGQGTKLEIK ... 1.15

Looking up CE115HA000/GLS3000 R29S (antibody, IgG1, name in Kabat numbering, V domains shown, one-arm IgG1) VH: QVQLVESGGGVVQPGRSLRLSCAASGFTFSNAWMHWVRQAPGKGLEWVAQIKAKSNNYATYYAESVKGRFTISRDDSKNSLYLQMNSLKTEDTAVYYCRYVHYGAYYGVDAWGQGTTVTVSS VL: DIVMTQSPLSLPVTPGEPASISCRSSQSLVHSNSNTYLHWYQQKPGQAPRLLIYKVSNRFSGVPDRFSGSGSGTDFTLKISRVEAEDVGVYYCGQGTQVPYTFGQGTKLEIK , I see its KD ratio to GLS3000 listed as 1.05

Reference source for all entries: patent US20210388087A1
